- SUBJECT_OF_TEST: Potassium voltage-gated channel subfamily A member 3 (Mus musculus, UniProt P16390)
- Sequence (P16390 whole entry): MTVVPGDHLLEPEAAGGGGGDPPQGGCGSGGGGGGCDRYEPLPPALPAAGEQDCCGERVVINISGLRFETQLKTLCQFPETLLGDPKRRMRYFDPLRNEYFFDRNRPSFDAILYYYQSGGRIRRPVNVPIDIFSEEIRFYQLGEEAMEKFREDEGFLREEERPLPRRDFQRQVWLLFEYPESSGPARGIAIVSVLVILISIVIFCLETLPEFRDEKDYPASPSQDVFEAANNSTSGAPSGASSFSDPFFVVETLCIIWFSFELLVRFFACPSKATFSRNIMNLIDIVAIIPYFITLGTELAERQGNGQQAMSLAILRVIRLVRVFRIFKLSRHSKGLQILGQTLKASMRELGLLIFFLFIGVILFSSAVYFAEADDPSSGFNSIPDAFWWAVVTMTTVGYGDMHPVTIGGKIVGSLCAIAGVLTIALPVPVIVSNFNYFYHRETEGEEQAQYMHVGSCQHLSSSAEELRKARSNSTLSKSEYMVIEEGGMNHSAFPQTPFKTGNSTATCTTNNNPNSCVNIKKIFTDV
- PROTOCOL_DESCRIPTION: Effect on blockade of mouse Kv1.3 channel expressed in L929 cells
pEC50: −log10 of the molar value.
If the reported pEC50 equals or exceeds 6, assign label 1. If not, assign label 0.

q: Please check the record "CCOc1c(C(=O)/C=C/c2cccc(O)c2)c(O)c(OC)c2occc12" and state if its pEC50 is at or above 6.
a: label 0

q: Please answer likewise for "COc1c(C(C)=O)c(O)c(OCc2cccc(Cl)c2)c2occc12"
a: label 1

q: Please answer likewise for "CCCOc1c(C(C)=O)c(O)c(OC)c2occc12"
a: label 0

We now examine a further compound.
q: Please check the record "COc1c(C(C)=O)c(O)c(OCc2ccc(C(C)(C)C)cc2)c2occc12" and state if its pEC50 is at or above 6.
a: label 0

* * *

Provide the reported pEC50 of each item.
- SUBJECT_OF_TEST: Potassium voltage-gated channel subfamily A member 2 (Homo sapiens, UniProt P16389)
- Sequence (P16389 whole entry): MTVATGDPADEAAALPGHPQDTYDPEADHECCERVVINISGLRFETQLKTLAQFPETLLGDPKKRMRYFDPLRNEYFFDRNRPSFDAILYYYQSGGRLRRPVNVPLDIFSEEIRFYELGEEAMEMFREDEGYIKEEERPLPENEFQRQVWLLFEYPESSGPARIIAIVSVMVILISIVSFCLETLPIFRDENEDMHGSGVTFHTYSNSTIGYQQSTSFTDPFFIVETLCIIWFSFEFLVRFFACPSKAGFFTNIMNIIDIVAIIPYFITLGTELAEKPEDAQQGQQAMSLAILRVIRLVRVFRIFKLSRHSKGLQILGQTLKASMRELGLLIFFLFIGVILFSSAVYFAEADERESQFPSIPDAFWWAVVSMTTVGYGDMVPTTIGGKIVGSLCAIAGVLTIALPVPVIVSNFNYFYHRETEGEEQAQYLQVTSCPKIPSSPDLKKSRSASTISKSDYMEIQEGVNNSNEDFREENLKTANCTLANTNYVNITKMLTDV
- PROTOCOL_DESCRIPTION: Effect on blockade of Kv1.2 channel
Give bare numbers, as −log10 of the molar value.

q: Name the recorded pEC50 for "CC(=O)c1c(O)c(OCc2ccccc2)c2occc2c1OCc1ccccc1" .
a: 5.00

q: Please answer likewise for "COc1c(C(C)=O)c(O)c(OCc2ccc(Br)cc2)c2occc12"
a: 5.85

Next up:
q: Name the recorded pEC50 for "COc1c(O)c(C(C)=O)c(OCc2ccc(Cl)cc2)c2ccoc12" .
a: 5.60

* * *

Provide the reported log10(EC50) of each item.
- SUBJECT_OF_TEST: Potassium voltage-gated channel subfamily A member 3 (Mus musculus)
- PROTOCOL_DESCRIPTION: Effect on blockade of mouse Kv1.3 channel expressed in L929 cells
Hi team, quick reminder: these entries are log10 of EC50 (nM).

Example entries begin here.
q: Name the recorded log10(EC50) for "COc1ccc(COc2c(C(C)=O)c(O)c(OC)c3occc23)cc1" .
a: 3.18

q: Please answer likewise for "COc1c(O)c(C(C)=O)c(OCc2ccc(OCc3ccccc3)cc2)c2ccoc12"
a: 3.94

q: Please answer likewise for "COc1c(O)c(C(C)=O)c(OCc2ccc(Br)cc2)c2ccoc12"
a: 2.70

q: Please answer likewise for "COc1c(C(C)=O)c(O)c(OCc2ccc(C(F)(F)F)cc2)c2occc12"
a: 2.62

Next:
q: Name the recorded log10(EC50) for "COc1c(C(C)=O)c(O)c(OCc2ccc3ccccc3c2)c2occc12" .
a: 3.70

* * *

Provide the reported EC50 of each item.
- SUBJECT_OF_TEST: Potassium voltage-gated channel subfamily A member 4 (Homo sapiens)
- Sequence (P22459 whole entry): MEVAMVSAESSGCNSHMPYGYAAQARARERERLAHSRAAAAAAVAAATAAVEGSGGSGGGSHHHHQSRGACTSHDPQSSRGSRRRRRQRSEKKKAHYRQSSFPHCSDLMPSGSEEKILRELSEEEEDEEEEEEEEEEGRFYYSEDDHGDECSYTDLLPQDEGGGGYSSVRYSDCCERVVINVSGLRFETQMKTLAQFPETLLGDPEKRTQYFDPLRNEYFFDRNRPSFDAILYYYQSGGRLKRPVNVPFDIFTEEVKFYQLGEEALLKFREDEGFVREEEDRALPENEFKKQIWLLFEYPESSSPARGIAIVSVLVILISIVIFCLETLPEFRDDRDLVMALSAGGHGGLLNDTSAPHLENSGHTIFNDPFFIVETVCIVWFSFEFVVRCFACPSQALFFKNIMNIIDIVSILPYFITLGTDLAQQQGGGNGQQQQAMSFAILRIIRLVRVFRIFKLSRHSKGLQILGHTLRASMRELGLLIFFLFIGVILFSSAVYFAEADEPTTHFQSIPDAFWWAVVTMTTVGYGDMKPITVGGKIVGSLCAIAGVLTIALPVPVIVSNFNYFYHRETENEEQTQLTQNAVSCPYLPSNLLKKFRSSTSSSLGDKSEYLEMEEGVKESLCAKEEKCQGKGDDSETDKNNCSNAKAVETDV
- PROTOCOL_DESCRIPTION: Effect on blockade of Kv1.4 channel
Give bare numbers, in µM.

q: Name the recorded EC50 for "COc1c(C(C)=O)c(O)c(OCc2ccc(Br)cc2)c2occc12" .
a: 4.3

Next up:
q: Name the recorded EC50 for "COc1c(O)c(C(C)=O)c(OCc2ccc(Cl)cc2)c2ccoc12" .
a: 4.8

* * *

- SUBJECT_OF_TEST: Potassium voltage-gated channel subfamily A member 3 (Mus musculus)
- PROTOCOL_DESCRIPTION: Effect on blockade of mouse Kv1.3 channel expressed in L929 cells
- Assay type: functional, cell-based
QUANTITY_KIND: pEC50
Answers are plain numbers, as −log10 of the molar value.

Example entries begin here.
q: Name the recorded pEC50 for "COc1cccc(COc2c(C(C)=O)c(O)c(OC)c3occc23)c1" .
a: 6.17

q: Please answer likewise for "COc1c(C(C)=O)c(O)c(OCc2cccc([N+](=O)[O-])c2)c2occc12"
a: 6.22

q: Please answer likewise for "COc1c(O)c(C(C)=O)c(OCc2ccccc2)c2ccoc12"
a: 5.60

q: Please answer likewise for "COc1c(O)c(C(C)=O)c(OCc2ccc(Cl)cc2)c2ccoc12"
a: 6.32

q: Please answer likewise for "COc1c(O)c(C(C)=O)c(OCc2ccc(C(F)(F)F)cc2)c2ccoc12"
a: 6.29

q: Please answer likewise for "COc1c(C(C)=O)c(O)c(OCc2ccccc2C)c2occc12"
a: 5.72

q: Please answer likewise for "CCCCCOc1c(O)c(C(C)=O)c(OC)c2ccoc12"
a: 5.52

q: Please answer likewise for "COc1c(O)c(C(C)=O)c(OCc2ccc(C(C)C)cc2)c2ccoc12"
a: 6.15

q: Please answer likewise for "CCCOc1c(O)c(C(C)=O)c(OC)c2ccoc12"
a: 5.10

q: Please answer likewise for "COc1c(O)c(C(C)=O)c(OCc2ccccc2C)c2ccoc12"
a: 5.70

For every item below, please supply its pEC50.
1. COc1c(O)c(C(C)=O)c(OCc2ccc3ccccc3c2)c2ccoc12
2. COc1c(O)c(C(C)=O)c(OCc2ccc(F)cc2)c2ccoc12
3. COc1c(C(C)=O)c(O)c(OCc2ccc(OC(F)(F)F)cc2)c2occc12

a:
1. 5.30
2. 6.00
3. 6.22

For every item below, please supply its pEC50.
1. COc1c(O)c(C(C)=O)c(OCc2ccc(OC(F)(F)F)cc2)c2ccoc12
2. CCCCCOc1c(C(C)=O)c(O)c(OC)c2occc12
3. COc1c(C(C)=O)c(O)c(OCc2ccccc2-c2ccccc2)c2occc12

a:
1. 5.74
2. 5.40
3. 5.96

For every item below, please supply its pEC50.
1. COc1c(O)c(C(C)=O)c(OCc2cccc(OC(F)(F)F)c2)c2ccoc12
2. COc1c(O)c(C(C)=O)c(OCc2ccc(C(=O)c3ccccc3)cc2)c2ccoc12
3. COc1c(C(C)=O)c(O)c(OCc2cccc(OC(F)(F)F)c2)c2occc12
4. COc1c(O)c(C(C)=O)c(OCc2ccccc2-c2ccccc2)c2ccoc12
5. CCOc1c(C(C)=O)c(O)c(OC)c2occc12
6. CCOc1c(C(C)=O)c(OCCCCCCOc2c(C(C)=O)c(OCC)c3ccoc3c2OC)c(OC)c2occc12

a:
[6.26, 6.30, 6.35, 5.70, 5.15, 6.10]

For every item below, please supply its pEC50.
1. COc1c(O)c(C(C)=O)c(OCc2cccc3ccccc23)c2ccoc12
2. COc1c(C(C)=O)c(O)c(OCc2cccc(F)c2)c2occc12
3. COc1c(O)c(C(C)=O)c(OCc2cccc(C)c2)c2ccoc12
4. COc1c(C(C)=O)c(O)c(OCc2ccc(Cl)cc2)c2occc12
5. COc1c(C(C)=O)c(O)c(OC)c2occc12
6. CC(=O)c1c(O)c(OCc2ccccc2)c2occc2c1OCc1ccccc1
7. COc1c(O)c(C(C)=O)c(OCc2cccc(F)c2)c2ccoc12

a:
1: 5.10; 2: 6.12; 3: 6.00; 4: 6.38; 5: 4.35; 6: 5.92; 7: 5.92

For every item below, please supply its pEC50.
1. COc1c(C(C)=O)c(O)c(OCc2ccccc2F)c2occc12
2. CCOc1c(O)c(C(C)=O)c(OC)c2ccoc12
3. COc1c(O)c(C(C)=O)c(OCc2ccccc2F)c2ccoc12
4. COc1c(C(C)=O)c(O)c(OCc2cccc(C)c2)c2occc12

a:
[5.60, 5.00, 5.77, 5.92]

For every item below, please supply its pEC50.
1. COc1c(C(C)=O)c(O)c(OCc2ccc(-c3ccccc3)cc2)c2occc12
2. COc1c(O)c(C(C)=O)c(OCc2ccc(C(C)(C)C)cc2)c2ccoc12
3. COc1c(C(C)=O)c(O)c(OCc2ccc(OCc3ccccc3)cc2)c2occc12
4. COc1c(C(C)=O)c(O)c(OCc2ccc(C(=O)c3ccccc3)cc2)c2occc12
5. COc1c(C(C)=O)c(O)c(OCc2ccccc2)c2occc12
6. COc1c(C(C)=O)c(O)c(OCc2ccc(Br)cc2)c2occc12

a:
5.92
5.82
5.20
6.30
5.92
6.40

For every item below, please supply its pEC50.
1. COc1c(O)c(C(C)=O)c(OCc2ccc(-c3ccccc3)cc2)c2ccoc12
2. CCOc1c(C(C)=O)c(O)c(OCC)c2occc12

a:
6.05
5.22

For every item below, please supply its pEC50.
1. COc1c(O)c(C(C)=O)c(OCc2cccc([N+](=O)[O-])c2)c2ccoc12
2. COc1c(C(C)=O)c(O)c(OCc2ccc(C(C)C)cc2)c2occc12
3. COc1c(O)c(C(C)=O)c(OCc2ccccc2Cl)c2ccoc12

a:
5.85
6.00
5.92

* * *

- SUBJECT_OF_TEST: Potassium voltage-gated channel subfamily A member 5 (Homo sapiens, UniProt P22460)
- Sequence (P22460 whole entry): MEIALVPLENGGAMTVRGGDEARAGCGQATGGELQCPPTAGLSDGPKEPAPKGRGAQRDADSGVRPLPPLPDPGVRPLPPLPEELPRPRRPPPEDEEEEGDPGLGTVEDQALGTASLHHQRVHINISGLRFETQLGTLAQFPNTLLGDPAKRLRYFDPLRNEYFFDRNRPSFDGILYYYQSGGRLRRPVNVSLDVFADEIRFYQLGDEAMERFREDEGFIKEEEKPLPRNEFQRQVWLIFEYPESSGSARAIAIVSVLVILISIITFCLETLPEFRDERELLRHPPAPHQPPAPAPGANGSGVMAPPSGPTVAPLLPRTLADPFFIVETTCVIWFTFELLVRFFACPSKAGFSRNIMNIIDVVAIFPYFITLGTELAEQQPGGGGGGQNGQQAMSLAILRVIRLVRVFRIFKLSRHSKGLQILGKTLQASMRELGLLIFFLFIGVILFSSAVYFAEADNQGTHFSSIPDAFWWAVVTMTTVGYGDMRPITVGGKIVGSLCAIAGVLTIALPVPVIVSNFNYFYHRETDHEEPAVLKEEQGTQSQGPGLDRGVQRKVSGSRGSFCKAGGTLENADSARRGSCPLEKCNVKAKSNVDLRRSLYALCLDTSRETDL
- PROTOCOL_DESCRIPTION: Effect on blockade of Kv1.5 channel
QUANTITY_KIND: pEC50
Give bare numbers, as −log10 of the molar value.

Example entries begin here.
q: Name the recorded pEC50 for "CC(=O)c1c(O)c(OCc2ccccc2)c2occc2c1OCc1ccccc1" .
a: 5.30

q: Please answer likewise for "COc1c(O)c(C(C)=O)c(OCc2ccc(Cl)cc2)c2ccoc12"
a: 6.15

Next up:
q: Name the recorded pEC50 for "COc1c(C(C)=O)c(O)c(OCc2ccc(Br)cc2)c2occc12" .
a: 6.05

// data source = ChEMBL document CHEMBL1138143
